Every entry's value here was drawn from PubChem BioAssay (NCI).

test system: SF-295 CNS; test: NCI tumour cell line growth inhibition, 48 h
TGI values for the compounds below.

>  <Compound>
CCCCCCCCCCCCCCCCP(=O)([O-])OCC[N+](C)(C)C

>  <Value modifier>
=

>  <TGI, µM>
25.8

$$$$
>  <Compound>
NC(=O)N/N=C(/c1nc2ccc([N+](=O)[O-])cc2[nH]c1=O)C(O)c1ccco1 (centres undefined)

>  <Value modifier>
>

>  <TGI, µM>
100

$$$$
>  <Compound>
c1ccc2nc(OCCN3CC3)ccc2c1

>  <Value modifier>
=

>  <TGI, µM>
35.4

$$$$
>  <Compound>
COc1cc(C=O)cc(C=Nc2ccc(S(N)(=O)=O)cc2)c1O

>  <Value modifier>
=

>  <TGI, µM>
23.2

$$$$
>  <Compound>
Cc1nnc(-c2ccc(-c3nc4ccccc4o3)cc2)o1

>  <Value modifier>
>

>  <TGI, µM>
100

$$$$
>  <Compound>
CCCCCCNC(=O)Oc1ccc(/C(=C(\C)c2ccccc2)c2ccc(OCCN(CC)CC)cc2)cc1

>  <Value modifier>
=

>  <TGI, µM>
7.38

$$$$
>  <Compound>
COc1ccc2c(c1)-c1[nH]c3ccccc3c1CC2

>  <Value modifier>
=

>  <TGI, µM>
27.3

$$$$
>  <Compound>
Cc1ccc(NC(=O)CCC(=O)C(C#N)c2ccccc2)cc1C (centres undefined)

>  <Value modifier>
>

>  <TGI, µM>
100

$$$$
>  <Compound>
CO[C@H](C(=O)O)[C@@H]1Cc2cc3cc(OC4CC(OC5CC(O)C(O)C(C)O5)C(O)C(C)O4)c(C)c(O)c3c(O)c2C(=O)[C@H]1OC1CC(OC2CC(OC3CC(C)(O)C(O)C(C)O3)C(O)C(C)O2)C(O)C(C)O1 (some centres undefined)

>  <Value modifier>
>

>  <TGI, µM>
32.5

$$$$

###

system: RXF 393 renal; test: NCI tumour cell line growth inhibition, 48 h
Measurement name: TGI

>  <Compound>
NCCCC[C@H](N)C(=O)Nc1ccc(-c2nc3ccccc3s2)cc1Cl

>  <Measurement target>
RXF 393 renal

>  <Reported value>
27.3 µM

$$$$
>  <Compound>
Cc1sc2nc3n(c(=O)c2c1C)N=C(c1ccc([N+](=O)[O-])cc1)CS3

>  <Measurement target>
RXF 393 renal

>  <Reported value>
> 100 µM

$$$$
>  <Compound>
CC(/C=N/NC1=NCCCN1)=N\NC1=NCCCN1

>  <Measurement target>
RXF 393 renal

>  <Reported value>
> 100 µM

$$$$
>  <Compound>
O=C1N[C@@H](COc2ccc(C=Nc3ccc(CCc4ccc(N=Cc5ccc(OC[C@@H]6COC(=O)N6)cc5)cc4)cc3)cc2)CO1

>  <Measurement target>
RXF 393 renal

>  <Reported value>
> 100 µM

$$$$
>  <Compound>
CN1C(=O)N(C)C2(CCN(CCCCCCF)CC2)C1=O

>  <Measurement target>
RXF 393 renal

>  <Reported value>
> 100 µM

$$$$
>  <Compound>
O=C(CCl)Nc1cc(O)c2c(c1)C(=O)c1cccc(O)c1C2=O

>  <Measurement target>
RXF 393 renal

>  <Reported value>
3.5 µM

$$$$
>  <Compound>
COc1cc(-c2nn(-c3ccc(NC(=O)c4cc(Cl)cc(Cl)c4)cc3)cc2-c2ccncc2)ccc1Cl

>  <Measurement target>
RXF 393 renal

>  <Reported value>
> 100 µM

$$$$
>  <Compound>
Cc1cccc(NC2=NCCO2)c1Cl

>  <Measurement target>
RXF 393 renal

>  <Reported value>
> 100 µM

$$$$
>  <Compound>
C[N+](C)([O-])CCCNc1ccnc2cccc([N+](=O)[O-])c12

>  <Measurement target>
RXF 393 renal

>  <Reported value>
79.1 µM

$$$$
>  <Compound>
C=CC(Br)(CBr)CCC(Br)C(C)C (stereo unspecified)

>  <Measurement target>
RXF 393 renal

>  <Reported value>
20.3 µM

$$$$
>  <Compound>
CCCC1(N)CC(OC)OC(C)C1O (stereo unspecified)

>  <Measurement target>
RXF 393 renal

>  <Reported value>
> 100 µM

$$$$

###

Items are presented alongside their recorded TGI.
tested on: SW-620 colon; experiment: NCI tumour cell line growth inhibition, 48 h

>  <Molecule>
O=C1NC2(C=Cc3c(ccc4ccccc34)O2)Oc2ccccc21 (stereo not drawn)

>  <TGI>
> 100 µM

$$$$
>  <Molecule>
COc1ccc(C2=NOP(c3ccccc3)(c3ccccc3)(c3ccccc3)C2)cc1

>  <TGI>
> 56.2 µM

$$$$
>  <Molecule>
C=CCC(SC)C1=C(C)C(=O)c2ccccc21 (stereo not drawn)

>  <TGI>
> 10 µM

$$$$
>  <Molecule>
COc1c(N2CCN(Cn3c(O)c(N=NC(=O)c4ccncc4)c4cc(F)ccc43)C(C)C2)c(F)cc2c(=O)c(C(=O)O)cn(C3CC3)c12 (stereo not drawn)

>  <TGI>
> 50 µM

$$$$
>  <Molecule>
CC(=O)CC(=O)/C=C/c1cccs1

>  <TGI>
> 100 µM

$$$$
>  <Molecule>
Nc1ccc(C(=O)N/C(=C\c2cccc([N+](=O)[O-])c2)c2nc3c4c(ccc3[nH]2)C(=O)c2ccccc2C4=O)cc1

>  <TGI>
> 100 µM

$$$$
>  <Molecule>
c1ccc(CCn2cncn2)cc1

>  <TGI>
> 100 µM

$$$$
>  <Molecule>
CCCCNC(=S)Nc1nc(C(=O)NNC(=O)c2ccccc2)cs1

>  <TGI>
30.2 µM

$$$$
>  <Molecule>
CCCCCCCCCCCCCCCCP(=O)([O-])OCC[N+](C)(C)C

>  <TGI>
29.7 µM

$$$$
>  <Molecule>
COc1ccc2c(c1)CC[C@@H]1[C@@H]2CC[C@]2(C)C=C(/C=C/C(=O)c3ccccc3)C[C@@H]12

>  <TGI>
30.2 µM

$$$$
>  <Molecule>
O=C(Nc1cc(-c2cccnc2)nc(NCCCN2CCOCC2)n1)c1cc(Br)cc(C(F)(F)F)c1

>  <TGI>
5.48 µM

$$$$
>  <Molecule>
OC1c2ccccc2C(O)C2OC12 (stereo not drawn)

>  <TGI>
> 100 µM

$$$$
>  <Molecule>
Cc1sc2ncn(Cc3ccc(Cl)c(Cl)c3)c(=O)c2c1C

>  <TGI>
> 100 µM

$$$$
>  <Molecule>
C[N+](C)(C)CC1CCCC/C1=N\O (stereo not drawn)

>  <TGI>
> 100 µM

$$$$
>  <Molecule>
CC1(C)c2ccccc2C(O)C12CCC(=O)CC2 (stereo not drawn)

>  <TGI>
> 100 µM

$$$$
>  <Molecule>
O=S(=O)(O)ONC1=NCCN1

>  <TGI>
> 100 µM

$$$$
>  <Molecule>
N#Cc1cccc(OCc2ccccc2COc2cccc(C#N)c2)c1

>  <TGI>
> 100 µM

$$$$
>  <Molecule>
COc1cccc(C2=C(c3cn(C)c4cccc(OC)c34)C(=O)NC2=O)c1

>  <TGI>
> 25 µM

$$$$
>  <Molecule>
NC(N)=NCC(N)C(=O)O (stereo not drawn)

>  <TGI>
> 100 µM

$$$$
>  <Molecule>
C#CCOC(=O)C(N)CCSC (stereo not drawn)

>  <TGI>
> 100 µM

$$$$
>  <Molecule>
CCN1CCNc2c3cc(OC)ccc3nc3c([N+](=O)[O-])ccc1c23

>  <TGI>
> 10 µM

$$$$
>  <Molecule>
Cc1ccc(NC(=O)CCC(=O)C(C#N)c2ccccc2)cc1C (stereo not drawn)

>  <TGI>
> 100 µM

$$$$
>  <Molecule>
O=C(/C(=C/c1ccccc1)c1ccccc1)N1c2ccccc2CC1c1c[nH]c2ccccc12 (stereo not drawn)

>  <TGI>
> 100 µM

$$$$

###

Entries and their TGI
system: NCI-H522 lung; experiment: NCI tumour cell line growth inhibition, 48 h

>  <Compound>
COC(=O)C1CC(C(=O)OC)c2nc3cc(C)c(C)cc3nc21 (stereo not given)

>  <TGI>
> 100 µM

$$$$
>  <Compound>
COc1ccc2c(c1)CC[C@@H]1[C@@H]2CC[C@]2(C)C=C(/C=C/C(=O)c3ccccc3)C[C@@H]12

>  <TGI>
32.7 µM

$$$$
>  <Compound>
NS(=O)(=O)c1ccc(NC(=O)Nc2ccccc2F)cc1

>  <TGI>
> 100 µM

$$$$
>  <Compound>
c1ccc(C2[C@@H]3CCCc4ccccc4C3=NN2c2ccccc2)cc1 (stereo not given in full)

>  <TGI>
> 100 µM

$$$$
>  <Compound>
CC(=O)n1ccc2c(Cl)ncnc21

>  <TGI>
> 54.4 µM

$$$$
>  <Compound>
C#CCCCC(=O)N(C(=O)CS(=O)CC)c1ccccc1 (stereo not given)

>  <TGI>
> 100 µM

$$$$
>  <Compound>
C[N+](C)(N)c1nc(N)c(C#N)c(C#N)c1C#N

>  <TGI>
> 10 µM

$$$$
>  <Compound>
CCC1(O)CC(OC2CC(N(C)C)C(OC3CC(O)C(OC4CCC(=O)C(C)O4)C(C)O3)C(C)O2)c2c(O)c3c(c(O)c2C1C(=O)OC)C(=O)c1cccc(O)c1C3=O (stereo not given)

>  <TGI>
0.0549 µM

$$$$
>  <Compound>
Cn1ncc(-c2ccc3c(=O)[nH]nc(CN)c3c2)c1-c1c(F)cc2ccccc2c1C#N

>  <TGI>
17.7 µM

$$$$
>  <Compound>
Cc1cc(O)cc2c1c(=O)c1ccccc1n2C

>  <TGI>
> 100 µM

$$$$
